These data points were gathered from ChEMBL document CHEMBL1961873.

Items are presented alongside their recorded inhibition.
- Assayed System: Protein kinase C beta type (Homo sapiens);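 note: GSK PKIS screen, average inhibition of the PKC-beta2 splice variant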
- Test Context: at 1 µM
- Description: GSK_PKIS: PKC-beta2 (splice variant) mean inhibition at 1 uM [Nanosyn]
Just the number please, in %, no unit attached.

| Structure String | Assayed System | U | inhibition |
| --- | --- | --- | --- |
| COc1ccc2ncnc(Nc3ccc(OCc4ccccc4)cc3)c2c1 | Protein kinase C beta type (Homo sapiens) | % | 1.9 |
| CCS(=O)(=O)c1ccc(OC)c(Nc2nccc(N(C)c3ccc4c(C)n[nH]c4c3)n2)c1 | Protein kinase C beta type (Homo sapiens) | % | 2.71 |
| NS(=O)(=O)c1cccc(Nc2cc(-c3ccc(F)cc3)n[nH]2)c1 | Protein kinase C beta type (Homo sapiens) | % | 3.53 |

Q) Can you look up the measured inhibition of [O-][S+]1CCN(Cc2ccc(-c3ccc4ncnc(Nc5ccc(OCc6ccccc6)c(Cl)c5)c4c3)o2)CC1 for me?
A) 2.88

Q) Proceed to COC(=O)c1ccc2c(c1)C(=Cc1cc(Br)c(O)c(Br)c1)C(=O)N2
A) 1.9

Q) What would you report for NS(=O)(=O)c1ccc(NC=C2C(=O)Nc3ccc4ncsc4c32)cc1 ?
A) 6.13

Q) Follow-up item: O=C1Nc2ccc(-c3cccnc3)cc2C1=Cc1cc(Br)c(O)c(Br)c1
A) 1.44

Q) Now the molecule COc1cc2ncn(-c3cc(OCc4ccccc4S(C)(=O)=O)c(C#N)s3)c2cc1OC
A) 4.05

Q) Same thing, different molecule: CN(C)CCCn1c(-c2nonc2N)nc2cnccc21
A) 4.48

====

- Assayed System: Rho-associated protein kinase 1 (Homo sapiens);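 note: values are mean percent inhibition of ROCK1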
- Test Context: at 0.1 µM
Quantity Kind: inhibition
Write your answer as a measured quantity: the number, then the unit.

Q) What value of inhibition has been recorded for this entry: COc1cccc(-n2ncc3c(N/N=C/c4ccc(S(C)(=O)=O)cc4)ncnc32)c1
A) 0.21%

Q) Similarly, O=C1Nc2ccccc2/C1=C/Nc1ccc2[nH]c(=O)[nH]c2c1 ?
A) 0.24%

Q) One more compound: NC(=O)c1sc(-n2cnc3ccccc32)cc1OCc1ccccc1Br
A) 2.06%

Q) Similarly, COc1ccc(-c2nn3ncccc3c2-c2ccnc(Nc3cccc(C(F)(F)F)c3)n2)cc1 ?
A) 0.25%

Q) CCOc1nccc2c1nc(-c1nonc1N)n2CC , same question.
A) 2.91%

Q) Field entry: COc1cc2ncnc(Nc3ccc(C)c(O)c3)c2cc1OC
A) 0.48%

Q) Next compound up: Cc1ccc(C(=O)NC2CC2)cc1-c1ccc2[nH]ncc2c1
A) -0.64%

Q) Now try Cc1ccc2c(-c3ccnc(Nc4ccc5c(c4)OCCO5)n3)c(-c3ccc(C(F)(F)F)cc3)nn2n1 .
A) 0.76%

====

Listed compounds paired with reported inhibition
- Assayed System: Serine/threonine-protein kinase D1 (Homo sapiens);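 note: each value is an averaged percent inhibition of PRKD1 kinase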
- Test Context: at 1 µM
Could you give me the number in %? Just the number is fine.

Example entries and their recorded answers appear below.
| Structure String | Assayed System | inhibition, % |
| --- | --- | --- |
| COC(=O)Nc1nc2cc(Oc3ccc(NC(=O)Nc4cccc(Br)c4)cc3)ccc2[nH]1 | Serine/threonine-protein kinase D1 (Homo sapiens) | 4.31 |
| CN(c1ccc(NC(=O)Nc2ccc(OC(F)(F)F)cc2)cc1)c1ccnc(Nc2cccc(S(N)(=O)=O)c2)n1 | Serine/threonine-protein kinase D1 (Homo sapiens) | 4.48 |
| CCS(=O)(=O)c1ccc(OC)c(Nc2nccc(N(C)c3ccc4c(C)n[nH]c4c3)n2)c1 | Serine/threonine-protein kinase D1 (Homo sapiens) | 6.33 |
| COc1cc(/C=N/Nc2ncnc3c2cnn3C(C)C)ccc1O | Serine/threonine-protein kinase D1 (Homo sapiens) | 1.16 |
| NC(=O)c1cccc(Nc2nccc(Nc3cccc(F)c3)n2)c1 | Serine/threonine-protein kinase D1 (Homo sapiens) | 4.25 |
| CN(C)c1cc2c(Nc3ccc4c(cnn4Cc4ccccc4)c3)ncnc2cn1 | Serine/threonine-protein kinase D1 (Homo sapiens) | 5.12 |

Q) Sample Cc1ccc2c(-c3ccnc(Nc4cccc(C(F)(F)F)c4)n3)c(-c3ccccc3)nn2n1 — what was its inhibition?
A) 39.8

====

Reported inhibition values for a set of compounds
- Assayed System: Tyrosine-protein kinase Tec (Homo sapiens) (UniProt P42680)
- Sequence (P42680 whole entry): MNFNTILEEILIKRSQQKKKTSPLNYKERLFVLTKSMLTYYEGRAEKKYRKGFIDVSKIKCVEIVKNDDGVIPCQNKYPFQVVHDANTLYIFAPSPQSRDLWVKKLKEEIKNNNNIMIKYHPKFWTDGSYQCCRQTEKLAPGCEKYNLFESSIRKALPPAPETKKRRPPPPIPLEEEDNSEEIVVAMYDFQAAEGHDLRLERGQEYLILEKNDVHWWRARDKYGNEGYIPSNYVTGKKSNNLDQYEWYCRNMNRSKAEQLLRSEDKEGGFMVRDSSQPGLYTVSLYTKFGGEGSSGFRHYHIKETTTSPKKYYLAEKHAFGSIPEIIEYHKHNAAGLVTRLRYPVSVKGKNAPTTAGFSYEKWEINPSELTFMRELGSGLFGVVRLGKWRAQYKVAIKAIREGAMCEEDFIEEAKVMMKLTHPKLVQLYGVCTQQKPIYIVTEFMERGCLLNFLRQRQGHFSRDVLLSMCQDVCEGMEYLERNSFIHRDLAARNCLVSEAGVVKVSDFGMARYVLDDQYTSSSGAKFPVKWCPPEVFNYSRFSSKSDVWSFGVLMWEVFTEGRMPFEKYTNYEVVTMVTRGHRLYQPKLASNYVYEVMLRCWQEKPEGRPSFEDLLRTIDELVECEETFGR
- Test Context: at 0.1 µM
- Description: GSK_PKIS: TEC mean inhibition at 0.1 uM [Nanosyn]

Completed entries (count: 4):
| Structure String | Observed |
| --- | --- |
| Nc1ccc(C#Cc2cncnc2Nc2ccc(OCc3cccc(F)c3)c(Cl)c2)cc1 | -0.48% |
| COc1ccc(-c2nn3ncccc3c2-c2ccnc(Nc3cccc(C(F)(F)F)c3)n2)cc1 | 1.14% |
| NC(=O)c1sc(-n2cnc3ccccc32)cc1OCc1ccccc1Br | 4.6% |
| CN(C)CCCn1c(-c2nonc2N)nc2cnccc21 | 4% |

Moving on to another compound below.
Q) Need inhibition, item C[C@@H](Oc1cc(-n2cnc3ccc(OCC4CCN(C)CC4)cc32)sc1C(N)=O)c1ccccc1C(F)(F)F
A) -1.52%

====

- Assayed System: Sphingosine kinase 2 (Homo sapiens)
- Sequence (whole entry): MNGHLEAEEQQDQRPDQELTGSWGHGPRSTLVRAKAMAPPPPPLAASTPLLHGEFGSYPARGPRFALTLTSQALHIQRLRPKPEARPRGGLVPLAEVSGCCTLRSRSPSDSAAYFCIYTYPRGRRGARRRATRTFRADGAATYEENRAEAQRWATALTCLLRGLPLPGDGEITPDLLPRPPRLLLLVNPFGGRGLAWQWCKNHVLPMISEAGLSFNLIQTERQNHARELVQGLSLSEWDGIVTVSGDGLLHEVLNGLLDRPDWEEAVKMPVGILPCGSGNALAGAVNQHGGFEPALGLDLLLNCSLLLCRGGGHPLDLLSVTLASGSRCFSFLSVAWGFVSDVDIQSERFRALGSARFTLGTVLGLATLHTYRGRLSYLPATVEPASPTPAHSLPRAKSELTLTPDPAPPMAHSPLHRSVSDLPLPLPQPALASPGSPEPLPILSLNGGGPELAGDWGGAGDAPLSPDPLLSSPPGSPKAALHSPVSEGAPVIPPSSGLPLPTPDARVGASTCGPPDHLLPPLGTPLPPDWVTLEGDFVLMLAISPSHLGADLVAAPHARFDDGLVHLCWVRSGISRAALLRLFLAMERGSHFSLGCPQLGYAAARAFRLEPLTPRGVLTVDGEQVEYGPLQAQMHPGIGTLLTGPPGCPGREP
- Test Context: at 1 µM
- Description: GSK_PKIS: SPHK2 mean inhibition at 1 uM [Nanosyn]
Quantity Kind: inhibition (%)
Quick reminder: number only, in %, skip the unit.

Worked cases, inhibition given:
| Structure String | inhibition / % |
| --- | --- |
| NC(=O)c1cccc(Nc2nccc(Nc3cccc(F)c3)n2)c1 | 0.34 |
| NS(=O)(=O)c1ccc(N/N=C2\C(=O)Nc3ccc(Cl)cc32)cc1 | -3.44 |
| NC(=O)c1sc(-n2cnc3ccccc32)cc1OCc1ccccc1Br | 0 |

Now turn to the next molecule.
Q) Param readout = inhibition; param system = Sphingosine kinase 2 (Homo sapiens); param query = CCn1c(-c2nonc2N)nc2ccc(F)cc21 ; response: value
A) -5.33

====

- Assayed System: Serine/threonine-protein kinase Chk2 (Homo sapiens) (UniProt O96017)
- Sequence (O96017 whole entry): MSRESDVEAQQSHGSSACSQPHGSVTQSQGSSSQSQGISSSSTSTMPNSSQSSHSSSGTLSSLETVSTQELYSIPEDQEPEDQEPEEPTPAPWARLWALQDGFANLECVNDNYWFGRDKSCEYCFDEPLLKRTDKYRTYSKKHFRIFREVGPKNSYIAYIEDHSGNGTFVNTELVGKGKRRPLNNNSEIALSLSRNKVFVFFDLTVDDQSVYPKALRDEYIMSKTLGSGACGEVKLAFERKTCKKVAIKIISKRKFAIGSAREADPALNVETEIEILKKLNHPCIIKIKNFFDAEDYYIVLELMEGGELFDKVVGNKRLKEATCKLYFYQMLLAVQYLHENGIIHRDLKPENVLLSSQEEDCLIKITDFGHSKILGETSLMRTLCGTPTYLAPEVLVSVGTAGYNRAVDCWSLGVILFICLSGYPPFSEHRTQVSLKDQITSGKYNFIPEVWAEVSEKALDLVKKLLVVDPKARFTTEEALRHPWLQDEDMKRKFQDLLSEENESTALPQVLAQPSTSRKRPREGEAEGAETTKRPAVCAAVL
- Test Context: at 0.1 µM
- Description: GSK_PKIS: CHEK2 mean inhibition at 0.1 uM [Nanosyn]
Quantity Kind: inhibition (%)
Hi! Could you send only the number? It should be in %, unit omitted.

| Structure String | Observed |
| --- | --- |
| Oc1cccc(-c2nc(-c3ccccc3)[nH]c2-c2ccncc2)c1 | 0.91 |
| Cc1ccc(C(=O)NC2CC2)cc1-c1ccc2[nH]ncc2c1 | -4.46 |
| Cc1nc(-c2ccccc2)n2nc(NCCCN3CCOCC3)ncc12 | 2.24 |
| Cc1ccc2c(c1)/C(=N/Nc1ccc(S(N)(=O)=O)cc1)C(=O)N2 | 0.04 |
| N#Cc1c(NC(=O)c2ccccc2F)sc2c1CCCC2 | -0.83 |
| Cc1cc(-c2ccccn2)cc(C)c1/C=C/c1cncc(-c2nn[nH]n2)c1 | 2.62 |
| FC(F)(F)c1ccc(-c2nn3ncccc3c2-c2ccnc(Nc3ccc4c(c3)OCCO4)n2)cc1 | 3.99 |
| CN(C)c1cc2c(Nc3ccc4c(cnn4Cc4ccccc4)c3)ncnc2cn1 | 3.91 |

Q) For O=S(=O)(CCOCc1ccc(-c2ccc3ncnc(Nc4ccc(OCc5cccc(F)c5)c(Cl)c4)c3c2)o1)c1ccccc1 , what is its reported inhibition?
A) 1.33

Q) Note, next up: OCc1ccc(-c2nc(-c3ccccn3)c(-c3ccc4c(c3)OCO4)[nH]2)cc1
A) 3.25

Q) Then what about the compound NC(=O)c1sc(-n2cnc3ccccc32)cc1OCc1ccccc1Br ?
A) 7.49

Q) Can you check NS(=O)(=O)c1cccc(-c2cc3ccncc3cc2OCc2ccccc2)c1 next?
A) 3.17

Q) Now consider CN(C)C(=O)O[C@@H]1CN[C@@H](C#Cc2cc3ncnc(Nc4ccc(OCc5cccc(F)c5)c(Cl)c4)c3s2)C1 .
A) 0.47

====

- Assayed System: Muscle, skeletal receptor tyrosine-protein kinase (Homo sapiens);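 note: reported value is the mean percent inhibition of MuSK kinase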
- Test Context: at 1 µM
Classify as follows. Reported inhibition greater than or equal to 3%: TRUE. Reported inhibition below: FALSE.

The following molecules have reported results that may help.
| Structure String | Cat |
| --- | --- |
| N#Cc1c(NC(=O)c2ccccc2F)sc2c1CCCC2 | FALSE |
| COc1cccc(-n2ncc3c(N/N=C/c4ccc(C)cc4)ncnc32)c1 | TRUE |
| CC(C)c1ccc(Nc2nccc(-c3cnn4ncccc34)n2)cc1 | TRUE |
| CN(C)C(=O)O[C@H]1CN[C@H](C#Cc2cc3ncnc(Nc4ccc(OCc5cccc(F)c5)c(Cl)c4)c3s2)C1 | TRUE |

Q) Does the reported inhibition for CS(=O)(=O)Nc1cccc(-c2ccc3c(NC(=O)C4CC4)n[nH]c3c2)c1 fall at or above the 3% mark?
A) TRUE

Q) Next molecule: [O-][S+]1CCN(Cc2ccc(-c3ccc4ncnc(Nc5ccc(OCc6ccccc6)c(Cl)c5)c4c3)o2)CC1
A) FALSE
